Test system: KCL-22
Settings: 72 h
ASSAY READOUT: IC50 (cell viability)

### Prompt Bench note: what IC50 (cell viability) did CN1CC(=O)N2[C@H](c3ccc4c(c3)OCO4)c3[nH]c4ccccc4c3C[C@@H]2C1=O [Tadalafil] show?
### Response > 10 µM

### Prompt Then this compound: COc1cc(/C=C/c2ccc(OC)cc2OC)cc(OC)c1 [2,3',4,5'-Tetramethoxystilbene]
### Response > 10 µM

### Prompt Then this compound: CCC(CC#N)OC(=O)N[C@@H](C)c1cccc(NC(=O)Nc2ccc(-c3cnco3)c(OC)c2)c1 (stereo in doubt) [AVN-944]
### Response 0.0628 µM

### Prompt Then this compound: Cn1c2cc(S(C)=O)sc2c2cnn(Cc3cccc(N)c3)c(=O)c21 (centres undefined) [TEPP-46]
### Response > 10 µM

----------
Tested on: BV-173
Conditions: 72 h
Exercise: state measured IC50 (cell viability) for each of the compounds provided.
# number only, unit nM dropped from output

### Prompt Bench note: what IC50 (cell viability) did NS(=O)(=O)c1ccc(S(=O)(=O)Nc2cccc3c(Cl)c[nH]c23)cc1 show?
### Response 856

### Prompt Then this compound: Clc1cc(Cl)c(OCC#CI)cc1Cl
### Response 1580

### Prompt Then this compound: O=C(Cc1cccc(OC(F)(F)F)c1)Nc1ccc(CCCCc2nnc(NC(=O)Cc3ccccn3)s2)nn1
### Response 118

### Prompt Then this compound: CCCCCCCCCCCCC/C=C/[C@@H](O)[C@H](CO)N(C)C
### Response 1670

----------
Test system: HL-60
Test: cell viability (% survival relative to DMSO control); higher = less cytotoxic
Conditions: 0.001 µM; 72 h; co-treatment: GSK2194069 100 nM
Exercise: state measured cell viability for each of the compounds provided.

### Prompt Bench note: what cell viability did C[C@H]1O[C@H](O[C@H]2[C@H](O)[C@@H](O)[C@@H](O[C@H]3[C@H](O)[C@@H](O)C(O)O[C@@H]3CO)O[C@@H]2CO)[C@H](O)[C@@H](O)[C@@H]1N[C@H]1C=C(CO)[C@@H](O)[C@H](O)[C@H]1O (mixture of isomers) [Acarbose] show?
### Response 109%

### Prompt Then this compound: Cl.NC1=CCCN1Cc1nc(O)nc(O)c1Cl [Tipiracil]
### Response 98.7%

### Prompt Then this compound: O=c1[nH]c(=O)n([C@H]2C[C@H](O)[C@@H](CO)O2)cc1I [Idoxuridine]
### Response 95.3%

### Prompt Then this compound: NCc1ccc(S(N)(=O)=O)cc1 [4-Homosulfanilamide]
### Response 101%

### Prompt Then this compound: NS(=O)(=O)c1ccc(NC(=O)Cc2ccccc2)cc1 [4-(2-Phenylacetamido)Benzenesulfonamide]
### Response 104%

### Prompt Then this compound: Cc1[nH]n(-c2ccccc2)c(=O)c1C1(C(F)(F)F)C(=O)N(c2ccccc2)C2=C1C(=O)CC(C)(C)C2 (stereo unspecified)
### Response 98.5%

----------
Exercise: state measured cell viability for each of the compounds provided.
Test system: KCL-22
Test: cell viability (% survival relative to DMSO control, bortezomib = 0%); higher = less cytotoxic
Details: 1 nM; 72 h
Remember to follow the number with its unit.

### Prompt Bench note: what cell viability did CC1Cc2ccccc2N1NC(=O)c1ccc(Cl)c(S(N)(=O)=O)c1 (stereo not given) [Indapamide] show?
### Response 89.3%

### Prompt Then this compound: CC(C)(CS(=O)(=O)[O-])NC(=O)CC[N+](C)(C)CCO
### Response 107%

### Prompt Then this compound: Nc1ccn([C@@H]2O[C@H](CO)[C@@H](O)C2(F)F)c(=O)n1 [Gemcitabine]
### Response 104%

### Prompt Then this compound: OC[C@H]1OC(O)C[C@@H](O)[C@@H]1O (stereo not given in full) [2-deoxyglucose]
### Response 110%

### Prompt Then this compound: Cl.NC1=CCCN1Cc1nc(O)nc(O)c1Cl [Tipiracil]
### Response 115%

The origin of these recorded values is the supplement of paper PMC8671470.
